molecular target: T1, CD16A V158 (UniProt P08637 17-208, limits assumed); experiment: assay not named in Table 4
T1 construct: Only the name and allotype are printed; also called FcγRIIIA
T1 sequence (P08637 17-208 F176V limits assumed): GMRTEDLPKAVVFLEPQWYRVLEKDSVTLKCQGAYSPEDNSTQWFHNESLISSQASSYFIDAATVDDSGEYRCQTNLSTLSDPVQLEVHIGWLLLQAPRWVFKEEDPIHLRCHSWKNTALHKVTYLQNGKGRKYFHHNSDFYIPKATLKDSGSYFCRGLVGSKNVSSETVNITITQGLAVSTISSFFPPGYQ
Field: label. Allowed values: rule met (binding relative to wild-type Fc < 2) or rule not met (binding relative to wild-type Fc >= 2).

1) Fc variant R255L D270E Y300L P396L (other, UniProt P01857-1 104-330, looked up, domain: Fc) DKTHTCPPCPAPELLGGPSVFLFPPKPKDTLMISLTPEVTCVVVDVSHEEPEVKFNWYVDGVEVHNAKTKPREEQYNSTLRVVSVLTVLHQDWLNGKEYKCKVSNKALPAPIEKTISKAKGQPREPQVYTLPPSRDELTKNQVSLTCLVKGFYPSDIAVEWESNGQPENNYKTTPLVLDSDGSFFLYSKLTVDKSRWQQGNVFSCSVMHEALHNHYTQKSLSLSPGK: rule met
2) Fc variant F243L R292P Y300L P396L (other, UniProt P01857-1 104-330, looked up, domain: Fc; also called Mutant 16) DKTHTCPPCPAPELLGGPSVFLLPPKPKDTLMISRTPEVTCVVVDVSHEDPEVKFNWYVDGVEVHNAKTKPPEEQYNSTLRVVSVLTVLHQDWLNGKEYKCKVSNKALPAPIEKTISKAKGQPREPQVYTLPPSRDELTKNQVSLTCLVKGFYPSDIAVEWESNGQPENNYKTTPLVLDSDGSFFLYSKLTVDKSRWQQGNVFSCSVMHEALHNHYTQKSLSLSPGK: rule not met
3) Fc variant F243L D270E G316D R416G (other, UniProt P01857-1 104-330, looked up, domain: Fc) DKTHTCPPCPAPELLGGPSVFLLPPKPKDTLMISRTPEVTCVVVDVSHEEPEVKFNWYVDGVEVHNAKTKPREEQYNSTYRVVSVLTVLHQDWLNDKEYKCKVSNKALPAPIEKTISKAKGQPREPQVYTLPPSRDELTKNQVSLTCLVKGFYPSDIAVEWESNGQPENNYKTTPPVLDSDGSFFLYSKLTVDKSGWQQGNVFSCSVMHEALHNHYTQKSLSLSPGK: rule met
4) Fc variant P247L D270E N421K (other, UniProt P01857-1 104-330, looked up, domain: Fc) DKTHTCPPCPAPELLGGPSVFLFPPKLKDTLMISRTPEVTCVVVDVSHEEPEVKFNWYVDGVEVHNAKTKPREEQYNSTYRVVSVLTVLHQDWLNGKEYKCKVSNKALPAPIEKTISKAKGQPREPQVYTLPPSRDELTKNQVSLTCLVKGFYPSDIAVEWESNGQPENNYKTTPPVLDSDGSFFLYSKLTVDKSRWQQGKVFSCSVMHEALHNHYTQKSLSLSPGK: rule met
5) Fc variant F243L P247L D270E N421K (other, UniProt P01857-1 104-330, looked up, domain: Fc) DKTHTCPPCPAPELLGGPSVFLLPPKLKDTLMISRTPEVTCVVVDVSHEEPEVKFNWYVDGVEVHNAKTKPREEQYNSTYRVVSVLTVLHQDWLNGKEYKCKVSNKALPAPIEKTISKAKGQPREPQVYTLPPSRDELTKNQVSLTCLVKGFYPSDIAVEWESNGQPENNYKTTPPVLDSDGSFFLYSKLTVDKSRWQQGKVFSCSVMHEALHNHYTQKSLSLSPGK: rule not met
6) Fc variant D270E G316D R416G (other, UniProt P01857-1 104-330, looked up, domain: Fc) DKTHTCPPCPAPELLGGPSVFLFPPKPKDTLMISRTPEVTCVVVDVSHEEPEVKFNWYVDGVEVHNAKTKPREEQYNSTYRVVSVLTVLHQDWLNDKEYKCKVSNKALPAPIEKTISKAKGQPREPQVYTLPPSRDELTKNQVSLTCLVKGFYPSDIAVEWESNGQPENNYKTTPPVLDSDGSFFLYSKLTVDKSGWQQGNVFSCSVMHEALHNHYTQKSLSLSPGK: rule not met
7) Fc variant D270E K392T P396L (other, UniProt P01857-1 104-330, looked up, domain: Fc) DKTHTCPPCPAPELLGGPSVFLFPPKPKDTLMISRTPEVTCVVVDVSHEEPEVKFNWYVDGVEVHNAKTKPREEQYNSTYRVVSVLTVLHQDWLNGKEYKCKVSNKALPAPIEKTISKAKGQPREPQVYTLPPSRDELTKNQVSLTCLVKGFYPSDIAVEWESNGQPENNYTTTPLVLDSDGSFFLYSKLTVDKSRWQQGNVFSCSVMHEALHNHYTQKSLSLSPGK: rule met
8) Fc variant F243L R292P Y300L V305I P396L (other, UniProt P01857-1 104-330, looked up, domain: Fc; also called Mutant 18) DKTHTCPPCPAPELLGGPSVFLLPPKPKDTLMISRTPEVTCVVVDVSHEDPEVKFNWYVDGVEVHNAKTKPPEEQYNSTLRVVSILTVLHQDWLNGKEYKCKVSNKALPAPIEKTISKAKGQPREPQVYTLPPSRDELTKNQVSLTCLVKGFYPSDIAVEWESNGQPENNYKTTPLVLDSDGSFFLYSKLTVDKSRWQQGNVFSCSVMHEALHNHYTQKSLSLSPGK: rule not met
9) Fc variant D270E P396L Q419H (other, UniProt P01857-1 104-330, looked up, domain: Fc) DKTHTCPPCPAPELLGGPSVFLFPPKPKDTLMISRTPEVTCVVVDVSHEEPEVKFNWYVDGVEVHNAKTKPREEQYNSTYRVVSVLTVLHQDWLNGKEYKCKVSNKALPAPIEKTISKAKGQPREPQVYTLPPSRDELTKNQVSLTCLVKGFYPSDIAVEWESNGQPENNYKTTPLVLDSDGSFFLYSKLTVDKSRWQHGNVFSCSVMHEALHNHYTQKSLSLSPGK: rule met
10) Fc variant F243L R292P V305I (other, UniProt P01857-1 104-330, looked up, domain: Fc; also called Mutant 13*) DKTHTCPPCPAPELLGGPSVFLLPPKPKDTLMISRTPEVTCVVVDVSHEDPEVKFNWYVDGVEVHNAKTKPPEEQYNSTYRVVSILTVLHQDWLNGKEYKCKVSNKALPAPIEKTISKAKGQPREPQVYTLPPSRDELTKNQVSLTCLVKGFYPSDIAVEWESNGQPENNYKTTPPVLDSDGSFFLYSKLTVDKSRWQQGNVFSCSVMHEALHNHYTQKSLSLSPGK: rule not met
